B1: S. cerevisiae Abp1 (full length; SH3 domain 535-592 mutated) / Hua2 (parent)
chain 1: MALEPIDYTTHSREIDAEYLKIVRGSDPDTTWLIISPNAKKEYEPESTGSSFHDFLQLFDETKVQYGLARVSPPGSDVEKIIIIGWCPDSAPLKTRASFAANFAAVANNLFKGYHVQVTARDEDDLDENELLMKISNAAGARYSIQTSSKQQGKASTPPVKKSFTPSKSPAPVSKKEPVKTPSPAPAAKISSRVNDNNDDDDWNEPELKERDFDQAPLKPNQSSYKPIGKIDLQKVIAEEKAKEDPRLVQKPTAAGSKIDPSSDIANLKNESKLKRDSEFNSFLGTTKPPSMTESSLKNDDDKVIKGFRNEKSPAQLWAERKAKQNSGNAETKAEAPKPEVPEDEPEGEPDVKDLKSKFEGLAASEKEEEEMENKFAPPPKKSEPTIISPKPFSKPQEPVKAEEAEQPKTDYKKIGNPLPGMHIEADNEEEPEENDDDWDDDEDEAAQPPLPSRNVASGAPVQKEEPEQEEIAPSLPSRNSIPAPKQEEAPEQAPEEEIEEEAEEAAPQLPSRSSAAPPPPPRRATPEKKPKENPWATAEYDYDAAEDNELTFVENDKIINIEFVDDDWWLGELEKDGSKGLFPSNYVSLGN
chain 2: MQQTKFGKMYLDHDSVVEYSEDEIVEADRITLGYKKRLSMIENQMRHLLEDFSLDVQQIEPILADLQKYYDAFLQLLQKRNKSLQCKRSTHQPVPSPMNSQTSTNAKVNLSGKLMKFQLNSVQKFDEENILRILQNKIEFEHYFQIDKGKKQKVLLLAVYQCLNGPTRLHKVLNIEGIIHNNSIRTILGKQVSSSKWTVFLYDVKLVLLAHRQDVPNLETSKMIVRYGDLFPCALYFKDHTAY

Variants of: B1
Assay: DHFR protein-fragment complementation in yeast (Abp1-DHFR F[1,2] x partner-DHFR F[3]), deep mutational scanning, second methotrexate selection vs reference
Conditions: with Hua2; S. cerevisiae, DHFR-PCA selection in liquid with methotrexate at 30 C, two 72 h selections (the score uses the second); reference = the pre-selection culture; not an affinity; scale: DMS score: mean over two replicates of log2(f_test/f_ref + 0.5)/ln 2, minus the synonymous-codon median
Readout kind: screen value

These solved cases illustrate the format of a correct answer.
chain 1 K558G :: -2.62
chain 1 T538P :: -1.88
chain 1 Y541T :: -2.3
chain 1 D577K :: -2.12
chain 1 I560G :: -2.38

(A) chain 1 D577A
(B) chain 1 G572V
(C) chain 1 D577E
Order the records by screen value, with each subsequent value no larger than the one before. Output the labels ranked as instructed.
C, A, B
